assay.remarks: Cytotoxicity against human BEAS2B cells after 72 hrs by MTT assay
Assay type: cell-based, BEAS-2B
measured.property: GI50 at 72 h

The examples below pair each entry with its known result.
1. C[C@H]1C=C(CCCCCCCC(O)CCCC[C@H](O)COCCOC[C@@H](O)CCCc2ccc(-c3ccccc3)cc2)C(=O)O1 (stereo partly drawn) = > 100 µM
2. C[C@H]1C=C(CCCCCCCC(O)CCCC[C@H](O)COCCOC[C@@H](O)CCCCC2CCCCC2)C(=O)O1 (stereo partly drawn) = 61 µM

## Task May I ask what GI50 at 72 h has been recorded for C[C@H]1C=C(CCCCCCCC(O)CCCC[C@H](O)COCCOC[C@@H](O)CCCc2ccccc2)C(=O)O1 (stereo partly drawn) ?
## Result > 100 µM

## Task Report GI50 at 72 h for C[C@H]1C=C(CCCCCCCC(O)CCCC[C@H](O)COCCOC[C@@H](O)CCCc2cccc(O)c2)C(=O)O1 (stereo partly drawn) please.
## Result > 100 µM

## Task So what does the record say about GI50 at 72 h for CCCCCCCCCC[C@H](O)COCCOC[C@@H](O)CCCCCCCCCCCCC1=C[C@H](C)OC1=O ?
## Result 120 µM

## Task Name the recorded GI50 at 72 h for COc1ccc(CCC[C@H](O)COCCOC[C@@H](O)CCCCC(O)CCCCCCCC2=C[C@H](C)OC2=O)cc1 (stereo partly drawn) .
## Result > 100 µM

## Task Which GI50 at 72 h is listed for COc1ccc2cc(CCC[C@H](O)COCCOC[C@@H](O)CCCCC(O)CCCCCCCC3=C[C@H](C)OC3=O)ccc2c1 (stereo partly drawn) ?
## Result > 100 µM

## Task Could you share which GI50 at 72 h value was measured for CCCCCC[C@H](O)COCCOC[C@@H](O)CCCCC(O)CCCCCCCC1=C[C@H](C)OC1=O (stereo partly drawn) ?
## Result > 100 µM

###

System: A549
assay.remarks: Cytotoxicity against human A549 cells after 72 hrs by MTT assay
Type: functional
conditions: A549, 72 h
Reported values of log10(GI50) for individual entries
Remember, log10 of GI50, in µM.

Sample records with log10(GI50):
1) C[C@H]1C=C(CCCCCCCC(O)CCCC[C@H](O)COCCOC[C@@H](O)CCCc2cccc(O)c2)C(=O)O1 (stereo partly drawn) = 0.78
2) C[C@H]1C=C(CCCCCCCC(O)CCCC[C@H](O)COCCOC[C@@H](O)CCCCC2CCCCC2)C(=O)O1 (stereo partly drawn) = 0.65
3) COc1ccc(CCC[C@H](O)COCCOC[C@@H](O)CCCCC(O)CCCCCCCC2=C[C@H](C)OC2=O)cc1 (stereo partly drawn) = 0.65
4) C[C@H]1C=C(CCCCCCCC(O)CCCC[C@H](O)COCCOC[C@@H](O)CCCc2ccccc2)C(=O)O1 (stereo partly drawn) = -0.11
5) CCCCCC[C@H](O)COCCOC[C@@H](O)CCCCC(O)CCCCCCCC1=C[C@H](C)OC1=O (stereo partly drawn) = 1.03

## Task Param item = C[C@H]1C=C(CCCCCCCC(O)CCCC[C@H](O)COCCOC[C@@H](O)CCCc2ccc(-c3ccccc3)cc2)C(=O)O1 (stereo partly drawn) ; retrieve measured log10(GI50).
## Result -0.75

## Task Quick check: log10(GI50) of COc1ccc2cc(CCC[C@H](O)COCCOC[C@@H](O)CCCCC(O)CCCCCCCC3=C[C@H](C)OC3=O)ccc2c1 (stereo partly drawn) ?
## Result 0.57

## Task Report log10(GI50) for CCCCCCCCCC[C@H](O)COCCOC[C@@H](O)CCCCCCCCCCCCC1=C[C@H](C)OC1=O please.
## Result -0.52
